- Test system: OVCAR-3
- assay-details: Growth inhibition of human OVCAR3 cells assessed as cell growth at 10 uM after 48 hrs by sulforhodamine B assay
- Assay type: functional
- assay-conditions: OVCAR-3, 48 h, read-out: Activity
Quick reference for growth at 10 µM among some compounds

{"line-notation": "Cc1cc(O)ccc1C1=NN(c2ccc(S(C)(=O)=O)cc2)C(=O)CC1", "growth at 10 µM": "65.1%"}
{"line-notation": "Cc1ccc(C2=NN(c3ccc(S(C)(=O)=O)cc3)C(=O)CC2)cc1", "growth at 10 µM": "-14.7%"}
{"line-notation": "CS(=O)(=O)c1ccc(N2N=C(c3ccc(-c4ccccc4)cc3)CCC2=O)cc1", "growth at 10 µM": "42.1%"}
{"line-notation": "CCc1ccc(C2=NN(c3ccc(S(C)(=O)=O)cc3)C(=O)CC2)cc1", "growth at 10 µM": "-13.6%"}

###

- Tested on: 786-0
- assay-details: Growth inhibition of human 786-0 cells after 48 hrs by sulforhodamine B assay
- Assay type: functional
- assay-conditions: 786-0, 48 h

{"line-notation": "Cc1cc(O)ccc1C1=NN(c2ccc(S(C)(=O)=O)cc2)C(=O)CC1", "GI50, µM": 92.5}
{"line-notation": "CCc1ccc(C2=NN(c3ccc(S(C)(=O)=O)cc3)C(=O)CC2)cc1", "GI50, µM": 5.13}
{"line-notation": "O=c1[nH]cc(F)c(=O)[nH]1", "GI50, µM": 0.72}
{"line-notation": "Cc1ccc(C2=NN(c3ccc(S(C)(=O)=O)cc3)C(=O)CC2)cc1", "GI50, µM": 5.78}

###

- System: MDA-MB-231
- assay-details: Growth inhibition of human MDA-MB-231 cells after 48 hrs by sulforhodamine B assay
- Assay type: functional
- assay-conditions: MDA-MB-231, 48 h
Quick reference for GI50 among some compounds

{"line-notation": "Cc1cc(O)ccc1C1=NN(c2ccc(S(C)(=O)=O)cc2)C(=O)CC1", "subject-of-test": "MDA-MB-231", "GI50 [µM]": 17.1}
{"line-notation": "O=c1[nH]cc(F)c(=O)[nH]1", "subject-of-test": "MDA-MB-231", "GI50 [µM]": 6.6}
{"line-notation": "Cc1ccc(C2=NN(c3ccc(S(C)(=O)=O)cc3)C(=O)CC2)cc1", "subject-of-test": "MDA-MB-231", "GI50 [µM]": 0.83}
{"line-notation": "CCc1ccc(C2=NN(c3ccc(S(C)(=O)=O)cc3)C(=O)CC2)cc1", "subject-of-test": "MDA-MB-231", "GI50 [µM]": 3.46}

###

- System: SK-MEL-5
- assay-details: Growth inhibition of human SK-MEL-5 cells assessed as cell growth at 10 uM after 48 hrs by sulforhodamine B assay
- Assay type: functional
- assay-conditions: SK-MEL-5, 48 h, read-out: Activity

{"line-notation": "Cc1cc(O)ccc1C1=NN(c2ccc(S(C)(=O)=O)cc2)C(=O)CC1", "subject-of-test": "SK-MEL-5", "growth at 10 µM [%]": 68.3}
{"line-notation": "CS(=O)(=O)c1ccc(N2N=C(c3ccc(Oc4ccccc4)cc3)CCC2=O)cc1", "subject-of-test": "SK-MEL-5", "growth at 10 µM [%]": 35.1}
{"line-notation": "Cc1ccc(C2=NN(c3ccc(S(C)(=O)=O)cc3)C(=O)CC2)cc1", "subject-of-test": "SK-MEL-5", "growth at 10 µM [%]": 13.9}
{"line-notation": "CCc1ccc(C2=NN(c3ccc(S(C)(=O)=O)cc3)C(=O)CC2)cc1", "subject-of-test": "SK-MEL-5", "growth at 10 µM [%]": 10.7}
